test: self-splicing fitness, log relative to wild type (ln ratio); higher = more splicing; Tetrahymena group I intron in knt gene, E. coli kanamycin selection, DiMSum; sequences stand for … in CUCUCU…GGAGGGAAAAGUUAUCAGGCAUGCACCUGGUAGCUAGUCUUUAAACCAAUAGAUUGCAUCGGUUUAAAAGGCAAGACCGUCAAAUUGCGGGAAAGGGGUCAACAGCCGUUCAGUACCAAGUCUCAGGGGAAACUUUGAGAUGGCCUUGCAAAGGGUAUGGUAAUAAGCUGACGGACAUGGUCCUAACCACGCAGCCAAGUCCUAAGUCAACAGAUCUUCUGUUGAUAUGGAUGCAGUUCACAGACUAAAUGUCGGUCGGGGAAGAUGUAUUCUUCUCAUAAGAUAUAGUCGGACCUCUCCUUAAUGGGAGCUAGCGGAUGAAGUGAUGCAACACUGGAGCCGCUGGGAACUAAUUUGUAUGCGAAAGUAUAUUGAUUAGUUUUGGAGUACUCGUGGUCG; conditions: 30 °C;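 further: selection with 25 µg/mL kanamycin versus none on LB agar overnight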
observedProperty: self-splicing fitness (ln)
Numbers only.

AGCGAGCAAUAUUACGAACA: -2.63
GAGCAGCAAUAUUACGCCUA: -0.758
CAAAAGCAAUAUUACGUGAA: -2.73
GAAUAGCAAUAUUACGGCAU: -0.386
AGAGAGCAAUAUUACGCGUG: -3.83
UCUCAGCAAUAUUACGAUCA: -0.104
GAUCAGCAAUAUUACGCAGC: -1.64
AUCAAGCAAUAUUACGAACG: -1.61
UUAAAGCAAUAUUACGGCGG: 0.463
CCGCAGCAAUAUUACGGCAC: -2.89

I'm hoping you can list self-splicing fitness (ln) for every sequence here, please.
1. UGAAAGCAAUAUUACGGGCG
2. UUAUAGCAAUAUUACGACCG
3. GGGGAGCAAUAUUACGGGUG
4. GAUGAGCAAUAUUACGCUGU
5. AUCUAGCAAUAUUACGUUCG
6. UGCUAGCAAUAUUACGAGGA
7. UUAUAGCAAUAUUACGCGGC

Found:
1: -0.0565; 2: -0.514; 3: -3.57; 4: -3.68; 5: -1.28; 6: -2.99; 7: -2.42

----------
assay: self-splicing fitness, log relative to wild type (ln ratio); higher = more splicing; Tetrahymena group I intron in knt gene, E. coli kanamycin selection, DiMSum; sequences stand for … in CUCUCU…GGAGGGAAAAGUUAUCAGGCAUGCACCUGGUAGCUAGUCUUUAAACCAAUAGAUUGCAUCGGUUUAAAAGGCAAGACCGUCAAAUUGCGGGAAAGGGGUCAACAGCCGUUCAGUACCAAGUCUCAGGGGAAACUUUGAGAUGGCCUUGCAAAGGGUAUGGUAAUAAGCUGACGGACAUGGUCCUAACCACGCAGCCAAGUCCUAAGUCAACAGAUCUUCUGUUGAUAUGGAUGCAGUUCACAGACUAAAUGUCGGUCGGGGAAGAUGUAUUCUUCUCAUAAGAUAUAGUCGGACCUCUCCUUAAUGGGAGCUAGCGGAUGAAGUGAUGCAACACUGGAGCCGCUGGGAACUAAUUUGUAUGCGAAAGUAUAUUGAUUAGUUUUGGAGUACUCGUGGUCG; settings: 37 °C
Grouping key: self-splicing fitness (ln). Bins: bin A (below -2), bin B (-2 to below -0.9), bin C (-0.9 or more)

Examples from the recorded data:
ACCUAGCAAUAUUACGUUGU: bin B
UACCAGCAAUAUUACGAUUU: bin C
GAGCAGCAAUAUUACGGCAG: bin B

Lookup: Exam item: assign "CAGUAGCAAUAUUACGGGAG" to the correct category.
Found: bin B

Lookup: Exam item: assign "UCCUAGCAAUAUUACGCGGG" to the correct category.
Found: bin A

Lookup: Exam item: assign "GACAAGCAAUAUUACGUCCA" to the correct category.
Found: bin B

----------
experiment: self-splicing fitness, log relative to wild type (ln ratio); higher = more splicing; Tetrahymena group I intron in knt gene, E. coli kanamycin selection, DiMSum; sequences stand for … in CUCUCU…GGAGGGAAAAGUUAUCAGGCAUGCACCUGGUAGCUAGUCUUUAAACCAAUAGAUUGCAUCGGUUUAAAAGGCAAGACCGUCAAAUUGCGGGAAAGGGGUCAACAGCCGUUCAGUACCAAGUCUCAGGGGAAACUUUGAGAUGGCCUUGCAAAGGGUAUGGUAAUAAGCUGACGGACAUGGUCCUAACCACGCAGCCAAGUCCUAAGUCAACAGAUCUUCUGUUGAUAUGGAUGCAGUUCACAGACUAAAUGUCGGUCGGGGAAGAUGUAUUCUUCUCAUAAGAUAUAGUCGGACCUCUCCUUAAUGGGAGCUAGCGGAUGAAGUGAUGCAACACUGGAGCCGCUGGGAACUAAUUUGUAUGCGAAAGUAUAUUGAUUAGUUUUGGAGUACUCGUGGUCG; conditions: 30 °C
Provide the recorded self-splicing fitness (ln) for the entries that follow.
Answers are plain numbers.

Examples from the recorded data:
GUAAAGCAAUAUUACGCAGU: -2.99
UAGAAGCAAUAUUACGAUCC: -2.25
GUUCAGCAAUAUUACGCUGG: -4.05
UGACAGCAAUAUUACGAAGG: -3.84
GGUGAGCAAUAUUACGCAAU: -3.03
GACUAGCAAUAUUACGGAAG: -3.56
AGAAAGCAAUAUUACGGGCA: -0.6
UGGGAGCAAUAUUACGUCGA: -1.85
GGCUAGCAAUAUUACGUUAU: -0.733
UAAUAGCAAUAUUACGCGUA: -1.85

I'm hoping you can list self-splicing fitness (ln) for every sequence here, please.
1. AUAAAGCAAUAUUACGCUCC
2. AAUUAGCAAUAUUACGUAAU
3. AGUGAGCAAUAUUACGGACA

Found:
1. -0.366
2. -1.92
3. -1.09

I'm hoping you can list self-splicing fitness (ln) for every sequence here, please.
1. GGUUAGCAAUAUUACGAGGA
2. AUCCAGCAAUAUUACGAUGG
3. GUGUAGCAAUAUUACGUUUC

Found:
[-3.3, -3.82, -2.63]

----------
Provide the recorded self-splicing fitness (ln) for the entries that follow.
test: self-splicing fitness, log relative to wild type (ln ratio); higher = more splicing; Tetrahymena group I intron in knt gene, E. coli kanamycin selection, DiMSum; sequences stand for … in CUCUCU…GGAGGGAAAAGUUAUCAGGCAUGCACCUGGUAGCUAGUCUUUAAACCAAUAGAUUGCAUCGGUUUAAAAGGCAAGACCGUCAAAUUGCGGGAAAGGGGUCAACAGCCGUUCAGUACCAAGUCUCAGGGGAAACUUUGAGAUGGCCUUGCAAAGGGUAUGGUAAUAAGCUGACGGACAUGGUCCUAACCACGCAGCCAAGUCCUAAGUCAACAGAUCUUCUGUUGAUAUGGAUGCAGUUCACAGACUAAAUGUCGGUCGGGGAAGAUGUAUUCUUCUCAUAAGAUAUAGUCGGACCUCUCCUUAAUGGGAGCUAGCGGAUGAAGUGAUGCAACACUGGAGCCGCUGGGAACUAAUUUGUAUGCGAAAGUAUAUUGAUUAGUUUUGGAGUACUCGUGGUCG; settings: 37 °C
Give bare numbers.

GAACAGCAAUAUUACGACAU: -0.153
UCGCAGCAAUAUUACGUGGU: -3.24
UGCCAGCAAUAUUACGGGAG: -0.763
AGGUAGCAAUAUUACGAAAU: -1.19

I'm hoping you can list self-splicing fitness (ln) for every sequence here, please.
1. GGUGAGCAAUAUUACGGUUA
2. UGCAAGCAAUAUUACGCAAC
3. AGUUAGCAAUAUUACGUGGA

Found:
[-1.85, -2.11, -1.58]

I'm hoping you can list self-splicing fitness (ln) for every sequence here, please.
1. AGCUAGCAAUAUUACGGCAU
2. AUUCAGCAAUAUUACGCUCA
3. CCUCAGCAAUAUUACGUACC

Found:
[-0.476, -0.0382, -3.42]

----------
Provide the recorded self-splicing fitness (ln) for the entries that follow.
assay: self-splicing fitness, log relative to wild type (ln ratio); higher = more splicing; Tetrahymena group I intron in knt gene, E. coli kanamycin selection, DiMSum; sequences stand for … in CUCUCU…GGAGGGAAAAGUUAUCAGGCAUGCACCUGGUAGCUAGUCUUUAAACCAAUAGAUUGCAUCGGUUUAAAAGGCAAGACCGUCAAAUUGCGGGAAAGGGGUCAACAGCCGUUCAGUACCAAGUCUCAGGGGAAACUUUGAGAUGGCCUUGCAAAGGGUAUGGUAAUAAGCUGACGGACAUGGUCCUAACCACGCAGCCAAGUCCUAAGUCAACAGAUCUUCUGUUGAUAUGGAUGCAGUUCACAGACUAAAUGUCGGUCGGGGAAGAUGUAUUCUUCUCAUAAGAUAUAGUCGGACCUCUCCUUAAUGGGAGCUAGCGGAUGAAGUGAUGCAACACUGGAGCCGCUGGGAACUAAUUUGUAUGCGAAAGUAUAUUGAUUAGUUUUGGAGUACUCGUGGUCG; details: 30 °C

Examples from the recorded data:
CGAAAGCAAUAUUACGCGGU: -2.88
GCUGAGCAAUAUUACGGUUG: -3.64

I'm hoping you can list self-splicing fitness (ln) for every sequence here, please.
1. UUAAAGCAAUAUUACGUUCC
2. GCGGAGCAAUAUUACGGUCU
3. UAGGAGCAAUAUUACGUGAC
4. AGAAAGCAAUAUUACGGUGA
5. GGUAAGCAAUAUUACGGUGC
6. AGACAGCAAUAUUACGUUUC

Found:
1. -2.36
2. -3.04
3. -3
4. -0.65
5. -1.14
6. -4.68

Values from the supplement of paper PMC7877785
